protocol notes: Kinetic solubility in PBS buffer containing 1% DMSO at pH 7.4 incubated for 2 hrs by HPLC analysis
Type: physicochemical
condition notes: read-out: Kinetic_solubility
For each entry below, report its solubility kinetic at 2 h value.
Answers are plain numbers, in µM.

Sample answers from the record:
molecule	solubility kinetic at 2 h / µM
CCC(C#N)Cn1c(=O)n(C)c2ccc(Nc3ccnc(Cl)c3C#N)cc21 (stereo unspecified)	9.2
C[C@@H]1CN(c2ncc(Cl)c(Nc3ccc4c(c3)n(CCC(C)(C)O)c(=O)n4C)n2)C[C@H](C)C1(F)F	8

Give measured solubility kinetic at 2 h for every item shown.
1. C[C@@H]1C[C@H](C)CN(c2ncc(Cl)c(Nc3ccc4c(c3)n(CCC(C)(C)O)c(=O)n4C)n2)C1
2. Cn1c(=O)n(CCC(C)(C)O)c2cc(Nc3ccnc(Cl)c3C#N)ccc21

Output:
1. 6
2. 25

Below is a list of molecules. For each, state its recorded solubility kinetic at 2 h.
1. Cn1c(=O)n(C)c2cc(Nc3ccnc(Cl)c3C#N)ccc21
2. C[C@@H]1CN(c2ncc(Cl)c(Nc3ccc4c(c3)n(CCC(C)(C)O)c(=O)n4C)n2)C[C@H](C)O1

Output:
[16, 95]

Hello, the source for this data is ChEMBL document CHEMBL4342505, in case you need it.
